Listing of entries alongside the reported %max.
# System name: Peroxisome proliferator-activated receptor delta (Mus musculus) (UniProt P35396)
# Sequence (P35396 whole entry): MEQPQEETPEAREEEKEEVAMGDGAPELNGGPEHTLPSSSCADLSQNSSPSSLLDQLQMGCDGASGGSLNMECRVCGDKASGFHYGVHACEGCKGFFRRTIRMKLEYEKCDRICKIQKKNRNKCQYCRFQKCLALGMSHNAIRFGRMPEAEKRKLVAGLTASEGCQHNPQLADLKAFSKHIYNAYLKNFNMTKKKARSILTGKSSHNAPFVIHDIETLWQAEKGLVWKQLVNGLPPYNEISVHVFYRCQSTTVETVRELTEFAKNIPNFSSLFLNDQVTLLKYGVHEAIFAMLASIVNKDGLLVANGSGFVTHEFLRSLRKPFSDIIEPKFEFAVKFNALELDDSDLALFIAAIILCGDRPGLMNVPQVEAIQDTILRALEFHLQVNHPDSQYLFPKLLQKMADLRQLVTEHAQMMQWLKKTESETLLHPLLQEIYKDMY
# Protocol notes: Agonist activity at mouse PPARdelta assessed as maximum activation at 10 uM by in vitro functional transactivation assay relative to 0.1 uM GW0742

stdin: # get_value(readout='%max', item= O=C(O)Cc1cn(Cc2ccccc2)c2cc(OCCCn3c4ccccc4c4ccccc43)ccc12 )
stdout: < 10%

stdin: Look up %max: O=C(O)Cc1c[nH]c2cc(OCCCn3c4ccccc4c4ccccc43)ccc12
stdout: < 10%

stdin: Fill in: %max of O=C(O)Cc1c[nH]c2cc(OCCCN3c4ccccc4Oc4ccccc43)ccc12 is ___
stdout: < 10%
